measurement context: in toluene, 318.2 K
readout name: solubility (mole fraction)
One number for each entry.

Query block: Can you share its solubility (mole fraction)? I mean this molecule: CCCCCCCCCCCCCCCCCCCCCCCCCCCCO
Result block: 0.0137

----------
measurement context: in n-hexanol, 323.2 K
readout name: solubility (mole fraction)
Answers are plain numbers.

Query block: Can you share its solubility (mole fraction)? I mean this compound: CCCCCCCCCCCCCCCCCCCCCCCCCCCCO
Result block: 0.0148

----------
measurement context: in n-pentanol, 308.2 K
readout name: solubility (mole fraction)
Answers are plain numbers.

Query block: Can you share its solubility (mole fraction)? I mean this compound: CCCCCCCCCCCCCCCCCCCCCCCCCCCCO
Result block: 0.00222
